- Protocol: Toxicity liver stage against HepG2, at 10uM
- Format: cell-based
- Set-up: test concentration 10 uM, cell line HepG2-A16-CD81EGFP
- Run parameters: human, HepG2-A16-CD81EGFP cells; read-out: INHIBITION
Measured cytotoxicity at 10 µM values are reported for all entries that follow.
Reply numerically in %, unit not repeated.

[[record]]
compound = "Cc1ccc(C(O)CNC(=O)NCc2c(C)cc(C)[nH]c2=O)cc1 (stereo unspecified)"
measurement_type = "cytotoxicity at 10 µM"
readout_number = -3.9

[[record]]
compound = "CC(C)(C)c1noc(CN2CCN(C(=O)c3ccco3)CC2)n1"
measurement_type = "cytotoxicity at 10 µM"
readout_number = -15.8

[[record]]
compound = "CC(=O)N(Cc1ncc(C)o1)C1CCN(Cc2nccn2C)C1 (stereo unspecified)"
measurement_type = "cytotoxicity at 10 µM"
readout_number = 6.57

[[record]]
compound = "c1cc(-c2noc([C@@H]3Cc4nc[nH]c4CN3)n2)ccn1"
measurement_type = "cytotoxicity at 10 µM"
readout_number = -0.873

[[record]]
compound = "COc1cn(CC(N)=O)c(CSc2nccc(C)n2)cc1=O"
measurement_type = "cytotoxicity at 10 µM"
readout_number = -12.1

[[record]]
compound = "CCOCCCC(=O)Nc1cccnc1-n1ccnc1C"
measurement_type = "cytotoxicity at 10 µM"
readout_number = 9.21

[[record]]
compound = "COCCN1CC[C@@H]2CN(Cc3cccnc3OC)C[C@@H]2C1"
measurement_type = "cytotoxicity at 10 µM"
readout_number = 13.6

[[record]]
compound = "CC(=O)NC1CCc2ccc(S(=O)(=O)NCc3ncccc3C)cc21 (stereo unspecified)"
measurement_type = "cytotoxicity at 10 µM"
readout_number = 10.4


Please give the measured cytotoxicity at 10 µM for this compound: Cc1cc(C)n(CCCNC(=O)NCc2c(C)cc(C)[nH]c2=O)n1
-1.12

Please give the measured cytotoxicity at 10 µM for this compound: Cc1noc(C(C)C)c1C(=O)NCc1ccc(N(C)C)c(F)c1
1.17

Please give the measured cytotoxicity at 10 µM for this compound: CCCNS(=O)(=O)c1ccc(C(=O)NC(CC)c2cnn(C)c2)cc1 (stereo unspecified)
6.1

----------
- Protocol: Toxicity liver stage against HepG2, at 10uM
- Assay type: cell-based
- Parameters: test concentration 10 uM, cell line HepG2-A16-CD81EGFP
- Run parameters: human, HepG2-A16-CD81EGFP cells; read-out: INHIBITION
Measurement type: cytotoxicity at 10 µM (%)
Reply numerically in %, unit not repeated.

Recorded cytotoxicity at 10 µM, per entry:
[[record]]
compound = "O=C(CN1C(=O)CCNC1=O)N1CCC(c2ccc(F)cc2)C1 (centres undefined)"
measurement_type = "cytotoxicity at 10 µM"
readout_number = 4.3

[[record]]
compound = "CCc1nnc(N[C@H](C)c2cccc(OC)c2)o1"
measurement_type = "cytotoxicity at 10 µM"
readout_number = 1.35

[[record]]
compound = "CCN1CCC(CC(=O)NCc2nc(C)cc(C)n2)CC1"
measurement_type = "cytotoxicity at 10 µM"
readout_number = -8.75

[[record]]
compound = "CCN1C[C@H]2CCN(C(=O)C3CCCO3)CC[C@H]2S1(=O)=O (some centres undefined)"
measurement_type = "cytotoxicity at 10 µM"
readout_number = 18

[[record]]
compound = "CN(Cc1ccc(N2CCOCC2)cc1)Cc1noc(C(C)(C)C)n1"
measurement_type = "cytotoxicity at 10 µM"
readout_number = 14

[[record]]
compound = "O=C1N[C@@H]2CCN(C(=O)C3CCC3)[C@@H]2C(=O)N1c1ccc(F)cc1"
measurement_type = "cytotoxicity at 10 µM"
readout_number = -6.43

[[record]]
compound = "O=C(O)c1ccccc1-c1ccc(CN2CCOCC2)cn1"
measurement_type = "cytotoxicity at 10 µM"
readout_number = -1.1

[[record]]
compound = "Cc1cccc(-c2nc(N)nc3c2CN(C(=O)c2ccncn2)C3C)c1 (centres undefined)"
measurement_type = "cytotoxicity at 10 µM"
readout_number = 4.65


Please give the measured cytotoxicity at 10 µM for this compound: CC(C)N1CCO[C@H]2CN(C(=O)Cc3ccsc3)C[C@H]21
11.4

Please give the measured cytotoxicity at 10 µM for this compound: CCN1C(=O)CCC12CCN(S(=O)(=O)c1ccccc1)CC2
-4.9

Please give the measured cytotoxicity at 10 µM for this compound: NCc1cn(CC2CCCN(C(=O)NCCc3ccc(F)cc3)C2)nn1 (centres undefined)
17.2

Please give the measured cytotoxicity at 10 µM for this compound: N#Cc1cccc(CN2CCC3(CC(C(=O)NCC4CC4)=NO3)C2)c1 (centres undefined)
8.73

Please give the measured cytotoxicity at 10 µM for this compound: Cc1nn(C)c(Cl)c1C1CCCN1C(=O)c1nccnc1N (centres undefined)
-6.9

Please give the measured cytotoxicity at 10 µM for this compound: O=C(c1cccc(F)c1Cl)N(CCO)CC1CC1
0.684

Please give the measured cytotoxicity at 10 µM for this compound: Cc1ccc(CCNC(=O)NCCCC(N)=O)c(C)c1
5.71
